assayProtocol: qHTS assay to identify small molecule antagonists of the constitutive androstane receptor (CAR) signaling pathway - cell viability counter screen (AID 1224837); further: nearly all actives have a fitted effect of over 45% in size
assayContext: HepG2-CYP2B6-hCAR viability, CellTiter-Fluor, 23 h, co-treated with 50 nM CITCO; series mostly up to 92.4 µM
Inconclusive results are not listed. The source made the active and inactive calls. The call rests on the fitted dose curve; in most records, active means well fitted cell-killing curve with a large enough effect in the repeat runs; inconclusive means weak or mixed curves, or effect the other way; inactive means flat fitted curve, though single readings scatter.
measurementName: outcome

Which value of outcome has been reported for CC(=O)[C@H]1CC[C@H]2[C@@H]3CC[C@H]4C[C@H](O)CC[C@]4(C)[C@H]3C(=O)C[C@]12C in the records? inactive

Which value of outcome has been reported for NC(=S)C(N)=S in the records? inactive

Which value of outcome has been reported for CC(=O)CCc1ccc2c(c1)OCO2 in the records? inactive

Which value of outcome has been reported for ClCCOCOCCCl in the records? inactive

Which value of outcome has been reported for CN1CCN(C(=O)O[C@H]2c3nccnc3C(=O)N2c2ccc(Cl)cn2)CC1 in the records? inactive

Which value of outcome has been reported for CCCCP(CCCC)CCCC in the records? inactive

Which value of outcome has been reported for CC(C)COP(=O)(OCC(C)C)OCC(C)C in the records? inactive

Which value of outcome has been reported for CCNc1nc(NC(C)C)nc(OC)n1 in the records? inactive

Continuing:
Which value of outcome has been reported for CCCCc1ccc(O)cc1 in the records? inactive

Which value of outcome has been reported for C[N+](=O)[O-] in the records? inactive

Which value of outcome has been reported for CN(N=O)C(N)=O in the records? inactive

Which value of outcome has been reported for CCOC(=O)C1(c2ccccc2)CCN(CCc2ccc(N)cc2)CC1 in the records? inactive

Which value of outcome has been reported for CC(C)CC#N in the records? inactive

Which value of outcome has been reported for CCCSC(=O)Cl in the records? inactive

Which value of outcome has been reported for Cc1ncc(CNC(=O)N(CCCl)N=O)c(N)n1 in the records? inactive

Which value of outcome has been reported for Fc1cc(Br)ccc1CBr in the records? inactive

Which value of outcome has been reported for Cc1nc(N)nc(N)n1 in the records? inactive

Which value of outcome has been reported for CCCCc1c(C)nc(NCC)[nH]c1=O in the records? inactive

Which value of outcome has been reported for COP(N)(=S)Oc1ccccc1C(=O)OC(C)C (stereo not given) in the records? inactive

Which value of outcome has been reported for CCOP(=S)(OCC)Oc1cc(-c2ccccc2)on1 in the records? inactive
